# experimentalTarget: human glucocorticoid receptor-α [GRX] isoform (Homo sapiens, UniProt P04150)
# Construct: host or cells: insect SF21 cells (baculovirus)
# assayNotes: Radioligand binding with human glucocorticoid receptor cytosol ([3H]-dexamethasone competition)
# statedConditions: GRX cytosol expressed in insect SF21 cells, [3H]-Dex ~0.9 nM, 4° C. overnight; Ki by Cheng-Prusoff, KL ~[…]; read-out: Ki (nM) GR
metricName: Ki
Answer shape: numeric part, then the unit.

compound	Ki
C=C(CCl)CC1Oc2cccc(OC)c2-c2ccc3c(c21)C(C)=CC(C)(C)N3 (stereo not shown)	5.8 nM
COc1c(O)ccc2c1-c1ccc3c(c1/C(=C/c1cccc(F)c1F)O2)C(C)=CC(C)(C)N3	3.1 nM

Now let's try a different one.
Lookup: Sample COc1cccc2c1-c1ccc3c(c1C(CCOC(=O)NCc1ccccc1)O2)C(C)=CC(C)(C)N3 (stereo not shown) — what was its Ki?
Found: 45 nM

###

# experimentalTarget: human glucocorticoid receptor-α [GRX] isoform (Homo sapiens)
# Construct: host or cells: insect SF21 cells (baculovirus)
# assayNotes: Radioligand binding with human glucocorticoid receptor cytosol ([3H]-dexamethasone competition)
# statedConditions: GRX cytosol expressed in insect SF21 cells, [3H]-Dex ~0.9 nM, 4° C. overnight; Ki by Cheng-Prusoff, KL ~[…]; read-out: Ki (nM) GR
Overview of reported Ki across a group of compounds:
Answer in nM, number only, no unit symbol.

In the examples that follow, each entry is paired with its recorded Ki.
compound	experimentalTarget	readoutNumber
C=CCC1Oc2cccc(SC)c2-c2ccc3c(c21)C(C)=CC(C)(C)N3 (stereo not shown) [Example 342]	human glucocorticoid receptor-α [GRX] isoform (Homo sapiens)	2590
C=CCC1Oc2c(C)ccc(OC)c2-c2ccc3c(c21)C(C)=CC(C)(C)N3 (stereo not shown) [Example 305]	human glucocorticoid receptor-α [GRX] isoform (Homo sapiens)	2
COc1cccc2c1-c1ccc3c(c1C(CC=C(C)C)O2)C(C)=CC(C)(C)N3 (stereo not shown) [Example 190]	human glucocorticoid receptor-α [GRX] isoform (Homo sapiens)	6.25

Now let's try a different one.
Lookup: Sample C=CCCC1Oc2ccc(O)c(OC)c2-c2ccc3c(c21)C(C)=CC(C)(C)N3 (stereo not shown) [Example 261] — what was its Ki?
Found: 0.75

###

# experimentalTarget: human progesterone receptor-A [PRA] isoform (Homo sapiens)
# Construct: host or cells: insect SF21 cells (baculovirus)
# assayNotes: Radioligand binding with human progesterone receptor cytosol ([3H]-progesterone competition)
# statedConditions: read-out: Ki (nM) PR
Overview of reported Ki across a group of compounds:
Answer in nM, number only, no unit symbol.

compound	Ki, nM
C=C=C(C)C1Oc2cccc(OC)c2-c2ccc3c(c21)C(C)=CC(C)(C)N3 (centres unmarked)	710
C=CCNC(=O)Oc1ccc2c(c1OC)-c1ccc3c(c1C(CC=C)O2)C(C)=CC(C)(C)N3 (centres unmarked)	8860

Now let's try a different one.
Lookup: Sample C=CCC1Oc2ccc(OC(=O)NCC(=O)OCC)c(OC)c2-c2ccc3c(c21)C(C)=CC(C)(C)N3 (centres unmarked) — what was its Ki?
Found: 2200

###

# experimentalTarget: human glucocorticoid receptor-α [GRX] isoform (Homo sapiens, UniProt P04150)
# Construct: host or cells: insect SF21 cells (baculovirus)
# Sequence (P04150 1-777): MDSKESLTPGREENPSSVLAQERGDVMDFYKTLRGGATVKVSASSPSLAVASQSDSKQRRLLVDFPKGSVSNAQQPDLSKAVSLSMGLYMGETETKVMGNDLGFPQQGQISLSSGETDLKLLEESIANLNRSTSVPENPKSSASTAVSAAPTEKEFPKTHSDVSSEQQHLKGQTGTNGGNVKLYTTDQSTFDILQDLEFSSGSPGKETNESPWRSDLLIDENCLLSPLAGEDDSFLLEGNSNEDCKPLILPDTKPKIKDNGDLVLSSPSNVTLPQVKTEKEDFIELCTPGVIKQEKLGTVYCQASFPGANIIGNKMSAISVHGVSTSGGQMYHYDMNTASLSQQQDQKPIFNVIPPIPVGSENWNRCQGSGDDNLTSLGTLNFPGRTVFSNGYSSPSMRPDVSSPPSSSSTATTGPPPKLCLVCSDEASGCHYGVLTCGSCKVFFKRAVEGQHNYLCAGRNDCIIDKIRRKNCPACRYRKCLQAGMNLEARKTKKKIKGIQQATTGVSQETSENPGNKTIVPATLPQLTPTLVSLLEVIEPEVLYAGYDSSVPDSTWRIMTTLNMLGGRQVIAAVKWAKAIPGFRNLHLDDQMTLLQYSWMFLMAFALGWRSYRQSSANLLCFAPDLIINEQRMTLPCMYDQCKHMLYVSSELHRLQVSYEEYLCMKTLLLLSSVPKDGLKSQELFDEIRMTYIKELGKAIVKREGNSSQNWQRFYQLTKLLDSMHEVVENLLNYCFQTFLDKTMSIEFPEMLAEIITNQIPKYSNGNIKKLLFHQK
# assayNotes: Radioligand binding with human glucocorticoid receptor cytosol ([3H]-dexamethasone competition)
# statedConditions: read-out: Ki (nM) GR
metricName: Ki (nM)
Answer in nM, number only, no unit symbol.

In the examples that follow, each entry is paired with its recorded Ki.
compound	experimentalTarget	metricName	readoutNumber
C=CCC1Oc2ccc(OC(=O)NC3CCCCC3)c(OC)c2-c2ccc3c(c21)C(C)=CC(C)(C)N3 (stereo not drawn) [Example 443]	human glucocorticoid receptor-α [GRX] isoform (Homo sapiens, UniProt P04150)	Ki	63.5
COC(=O)Oc1cccc(C2Oc3cccc(OC)c3-c3ccc4c(c32)C(C)=CC(C)(C)N4)c1 (stereo not drawn) [Example 84]	human glucocorticoid receptor-α [GRX] isoform (Homo sapiens, UniProt P04150)	Ki	17.3
C=CCC1Oc2ccc(OC(=O)NCC(=O)OCC)c(OC)c2-c2ccc3c(c21)C(C)=CC(C)(C)N3 (stereo not drawn) [Example 427]	human glucocorticoid receptor-α [GRX] isoform (Homo sapiens, UniProt P04150)	Ki	7.8
C=CCNC(=O)Oc1ccc2c(c1OC)-c1ccc3c(c1C(CC=C)O2)C(C)=CC(C)(C)N3 (stereo not drawn) [Example 442]	human glucocorticoid receptor-α [GRX] isoform (Homo sapiens, UniProt P04150)	Ki	9.1
C=CCC1Oc2ccc(O)c(Cl)c2-c2ccc3c(c21)C(C)=CC(C)(C)N3 (stereo not drawn) [Example 216]	human glucocorticoid receptor-α [GRX] isoform (Homo sapiens, UniProt P04150)	Ki	0.58

Lookup: Please provide the recorded Ki for C=C=C(C)C1Oc2cccc(OC)c2-c2ccc3c(c21)C(C)=CC(C)(C)N3 (stereo not drawn) [Example 210] , tested on human glucocorticoid receptor-α [GRX] isoform (Homo sapiens, UniProt P04150).
Found: 21

###

# experimentalTarget: human progesterone receptor-A [PRA] isoform (Homo sapiens, UniProt P06401)
# Construct: host or cells: insect SF21 cells (baculovirus)
# Sequence (P06401 165-933): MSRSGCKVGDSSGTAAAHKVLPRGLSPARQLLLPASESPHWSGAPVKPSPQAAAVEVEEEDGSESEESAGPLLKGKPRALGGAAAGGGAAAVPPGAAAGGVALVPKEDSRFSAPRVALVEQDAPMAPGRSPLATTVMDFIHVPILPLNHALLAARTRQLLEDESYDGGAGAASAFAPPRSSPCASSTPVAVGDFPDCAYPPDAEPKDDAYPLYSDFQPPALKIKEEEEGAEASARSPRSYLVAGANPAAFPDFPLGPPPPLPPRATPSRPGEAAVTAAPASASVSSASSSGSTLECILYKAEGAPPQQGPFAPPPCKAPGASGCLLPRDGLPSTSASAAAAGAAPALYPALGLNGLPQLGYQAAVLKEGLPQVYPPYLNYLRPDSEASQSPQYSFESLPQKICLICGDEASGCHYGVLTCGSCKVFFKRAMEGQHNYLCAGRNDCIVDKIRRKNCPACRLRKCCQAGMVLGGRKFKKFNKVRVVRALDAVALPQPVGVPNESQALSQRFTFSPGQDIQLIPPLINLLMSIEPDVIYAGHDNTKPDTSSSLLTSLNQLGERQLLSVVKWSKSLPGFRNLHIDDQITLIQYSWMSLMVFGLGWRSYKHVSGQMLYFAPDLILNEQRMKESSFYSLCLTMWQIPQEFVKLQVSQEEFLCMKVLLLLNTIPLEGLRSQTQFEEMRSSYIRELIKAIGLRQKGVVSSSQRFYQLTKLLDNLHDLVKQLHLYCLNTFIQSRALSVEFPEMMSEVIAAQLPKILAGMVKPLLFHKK
# assayNotes: Radioligand binding with human progesterone receptor cytosol ([3H]-progesterone competition)
# statedConditions: PRA cytosol expressed in insect SF21 cells, [3H]Prog ~0.8 nM, 4° C. overnight; Ki by Cheng-Prusoff, KL ~4.5 nM; read-out: Ki (nM) PR
Overview of reported Ki across a group of compounds:
Answer in nM, number only, no unit symbol.

compound	resultUnits	Ki
COc1c(O)ccc2c1-c1ccc3c(c1[C@H](C1(C)CC=CCC1)O2)C(C)=CC(C)(C)N3 (single isomer, unassigned; (-)) [Example 238]	nM	11.5
C=CCC1Oc2ccc(Br)c(OC)c2-c2ccc3c(c21)C(C)=CC(C)(C)N3 (stereo not shown) [Example 300]	nM	34.4
CCCCC1Oc2cccc(OC)c2-c2ccc3c(c21)C(C)=CC(C)(C)N3 (stereo not shown) [Example 20]	nM	1680

Now let's try a different one.
Lookup: Sample C/C=C\CC1Oc2ccc(O)c(OC)c2-c2ccc3c(c21)C(C)=CC(C)(C)N3 (stereo not shown) [Example 282] — what was its Ki?
Found: 42

###

# experimentalTarget: human glucocorticoid receptor-α [GRX] isoform (Homo sapiens)
# Construct: host or cells: insect SF21 cells (baculovirus)
# assayNotes: Radioligand binding with human glucocorticoid receptor cytosol ([3H]-dexamethasone competition)
# statedConditions: GRX cytosol expressed in insect SF21 cells, [3H]-Dex ~0.9 nM, 4° C. overnight; Ki by Cheng-Prusoff, KL ~[…]; read-out: Ki (nM) GR
Lab note: compare Ki with 200 nM, writing Yes if less and No if equal or more.

compound	labelClass
COCC1=CC(C2Oc3cccc(OC)c3-c3ccc4c(c32)C(C)=CC(C)(C)N4)CCC1 (stereo not shown) [Example 164]	Yes
COc1cccc2c1-c1ccc3c(c1C(c1c[nH]c4ccccc14)O2)C(C)=CC(C)(C)N3 (stereo not shown)	No
COc1cccc2c1-c1ccc3c(c1C(c1cc(F)cc(F)c1)O2)C(C)=CC(C)(C)N3 (stereo not shown)	Yes
C=CCC1Oc2ccc(OC(=O)CCCC(=O)N3CCCCC3)c(OC)c2-c2ccc3c(c21)C(C)=CC(C)(C)N3 (stereo not shown)	Yes
C=CCC1Oc2ccc(OC(=O)CCCC(=O)N(CC)CC)c(OC)c2-c2ccc3c(c21)C(C)=CC(C)(C)N3 (stereo not shown)	Yes
COc1cccc2c1-c1ccc3c(c1C(c1cccc(Br)c1)O2)C(C)=CC(C)(C)N3 (stereo not shown)	Yes
C=CCOc1cccc(C2Oc3cccc(OC)c3-c3ccc4c(c32)C(C)=CC(C)(C)N4)c1 (stereo not shown)	Yes
COc1cccc2c1-c1ccc3c(c1C(c1cccc(CCN(C)C)c1)O2)C(C)=CC(C)(C)N3 (stereo not shown)	No

Lookup: Does the reported Ki of the following compound sit strictly below 200 nM? CC1=CC(C)(C)Nc2ccc3c(c21)C(c1ccccc1)Oc1cccc(O)c1-3 (stereo not shown)
Found: Yes

Lookup: Does the reported Ki of the following compound sit strictly below 200 nM? CC1=CC(C)(C)Nc2ccc3c(c21)C(c1cc(Cl)cc(Cl)c1)Oc1cccc(O)c1-3 (stereo not shown)
Found: Yes

Lookup: Does the reported Ki of the following compound sit strictly below 200 nM? COc1c(O)ccc2c1-c1ccc3c(c1C(c1ccc(Cl)c(C(F)(F)F)c1)O2)C(C)=CC(C)(C)N3 (stereo not shown)
Found: Yes

Lookup: Does the reported Ki of the following compound sit strictly below 200 nM? COC(=O)C1=CC(C2Oc3ccc(O)c(OC)c3-c3ccc4c(c32)C(C)=CC(C)(C)N4)CCC1 (single isomer, unassigned) [Example 288]
Found: Yes

Lookup: Does the reported Ki of the following compound sit strictly below 200 nM? COCc1cccc2c1-c1ccc3c(c1C(c1ccccc1)O2)C(C)=CC(C)(C)N3 (stereo not shown)
Found: Yes

Lookup: Does the reported Ki of the following compound sit strictly below 200 nM? C=CCC1Oc2cccc(OC)c2-c2ccc3c(c21)C(C)=CC(C)(C)N3 (stereo not shown) [Example 2]
Found: Yes

Lookup: Does the reported Ki of the following compound sit strictly below 200 nM? CC(=O)Oc1cccc2c1-c1ccc3c(c1C(c1ccccc1)O2)C(C)=CC(C)(C)N3 (stereo not shown)
Found: Yes

Lookup: Does the reported Ki of the following compound sit strictly below 200 nM? COc1c(O)ccc2c1-c1ccc3c(c1[C@@H]([C@H]1C=CCC1)O2)C(C)=CC(C)(C)N3
Found: No

Reference for the values: patent US6506766B1
